Every entry's value here was drawn from the RepoRT retention time repository (doi:10.1021/acs.analchem.1c00972).

- TEST DESCRIPTION: RP, Waters ACQUITY UPLC BEH C18, 100 × 1 mm, 1.7 µm, 50 °C, 0.3 mL/min, estimated dead time 0.17 min; A: water + 0.1% formic acid + 20 mM ammonium formate; B: methanol + 0.1% formic acid + 20 mM ammonium formate; gradient (min/%B) 0/0 15/100 21/100 22/0 30/0
- CONDITION: stereoisomer not certain
Entries annotated with measured LC retention time
RECORDED METRIC: LC retention time (min)

* CCCCOCCOCCO | 10.8
* Cc1cc(C2CCCCC2)n(O)c(=O)c1 | 14.9
* CC1(C)CCC2(C(=O)O)CCC3(C)C(=CCC4C5(C)CCC(O)C(C)(CO)C5CCC43C)C2C1 (centres undefined) | 17.2
* CC12CCC3C(CCC4=CC(=O)CCC43C)C1CCC2=O (centres undefined) | 14
* CCN(CCCCOC(=O)c1ccc(OC)c(OC)c1)C(C)Cc1ccc(OC)cc1 (centres undefined) | 12.1
* CNC(CC(C)C)C(=O)NC1C(=O)NC(CC(N)=O)C(=O)NC2C(=O)NC3C(=O)NC(C(=O)NC(C(=O)O)c4cc(O)cc(O)c4-c4cc3ccc4O)C(O)c3ccc(c(Cl)c3)Oc3cc2cc(c3OC2OC(CO)C(O)C(O)C2OC2CC(C)(N)C(O)C(C)O2)Oc2ccc(cc2Cl)C1O (centres undefined) | 7.04
* COCCCCC(=NOCCN)c1ccc(C(F)(F)F)cc1 | 13.5
* CCN(CCO)CCCC(C)Nc1ccnc2cc(Cl)ccc12 (centres undefined) [Hydroxychloroquine] | 7.34
* CCC(=C(c1ccc(O)cc1)c1ccc(OCCN(C)C)cc1)c1ccccc1 [4-Hydroxytamoxifen] | 14.3
* Cc1ccccc1C(=O)Nc1cccc(OC(C)C)c1 | 14.4
* CCCCOC(=O)C(C)Oc1ccc(Oc2ccc(C(F)(F)F)cn2)cc1 (centres undefined) | 16.7
* CSc1nc(NC(C)C)nc(NC(C)C)n1 | 14.2
* CCC(=O)OC1(C(=O)SCF)C(C)CC2C3CC(F)C4=CC(=O)C=CC4(C)C3(F)C(O)CC21C (centres undefined) [Fluticasone propionate] | 15.3
* COc1nc(C)nc(NC(=O)NS(=O)(=O)c2ccccc2OCCCl)n1 | 11.5
* Cn1cc(C(=O)Nc2ccc(F)cc2-c2ccc(Cl)c(Cl)c2)c(C(F)F)n1 | 15.4
* Cn1c(=O)nc(NC(C)(C)C)[nH]c1=O | 8.56
* COC1C=COC2(C)Oc3c(C)c(O)c4c(O)c(c5c(nc6cc(C)ccn65)c4c3C2=O)NC(=O)C(C)=CC=CC(C)C(O)C(C)C(O)C(C)C(OC(C)=O)C1C (centres undefined) | 14.7
* Cc1cc(=O)n(-c2ccccc2)n1C | 8.9
* CC(=O)C1(O)CCC2C3CCC4=CC(=O)CCC4(C)C3CCC21C (stereo not drawn) [17alpha-Hydroxyprogesterone] | 14.5
* Nc1cccc2c(N)cccc12 | 2.7
* Nc1c(Cl)cnn(-c2ccccc2)c1=O | 11.4
* CCNP(=S)(OC)OC(C)=CC(=O)OC(C)C (centres undefined) | 14.6
* CCc1cccc(C)c1N(C(=O)CS(=O)(=O)O)C(C)C(=O)O (centres undefined) | 11
* CCCc1nc2c(C)cc(-c3nc4ccccc4n3C)cc2n1Cc1ccc(-c2ccccc2C(=O)O)cc1 | 14.2
* CC(=O)c1ccc(N)cc1 | 2.5
* Cc1ccc(N)cc1O | 3.69
* Cn1cc[nH]c1=S | 2.75
* COCCCOc1cc(CC(CC(N)C(O)CC(C(=O)NCC(C)(C)C(N)=O)C(C)C)C(C)C)ccc1OC (centres undefined) | 13.6
* CC=C(C)C(=O)OC1CCN2CC=C(COC(=O)C(O)(C(C)O)C(C)(C)O)C12 (centres undefined) | 9.4
* O=c1[nH]cc(F)c(=O)[nH]1 | 7.72
* COC(C)C(O)(C(=O)OCC1=CCN2CCC(O)C12)C(C)C (centres undefined) | 8.05
* O=C(O)c1ccc(Cl)cc1Cl | 12.7
* NS(=O)(=O)C(F)(F)C(F)(F)C(F)(F)C(F)(F)C(F)(F)C(F)(F)C(F)(F)C(F)(F)F [Perfluorooctanesulfonamide] | 16.5
* CC(=O)C1(O)CCC2C3C=C(Cl)C4=CC(=O)C5CC5C4(C)C3CCC21C (centres undefined) | 14.6
